viability values, listed per item
experiment: reversal of MRP1-mediated doxorubicin resistance, pilot screen, H69AR cells, doxorubicin co-treatment (AID 601); conditions: H69AR cells + 2 uM doxorubicin, CellTiter-Glo, 72 h; measured here: viability with 2 uM doxorubicin; at 10 µM; stronger effect = lower value

                                   molecule  observedvalue
0     COc1cccc(N2CCN(CC(=O)NCc3cccs3)CC2)c1          92.8%
1           Nn1c(SCC(=O)NC2CCCCC2)nnc1C1CC1           103%
2  CCCOc1ccc(N2C(=O)C3ON(c4ccccc4)C(c4ccc(O)c(OC)c4)C3C2=O)cc1 (stereo unspecified)          83.3%
3  COc1ccc(CCn2c(C)cc(C(=O)CSc3nnnn3C)c2C)cc1           104%
4          CC(=O)Nc1c(C(=O)C2CC2)oc2ccccc12          82.5%
5  COCCNC(=O)C(c1ccc(O)cc1)N(Cc1ccco1)C(=O)CCC(=O)Nc1nccs1 (stereo unspecified)          88.3%

Consider the molecule CCCCc1c(O)nc(SCCN(C)C)n(-c2ccccc2)c1=O . State its measured viability. 99%

Consider the molecule CCCCNc1cc(C)oc(=O)c1C(C)=O . State its measured viability. 90.9%

Consider the molecule CN(C(=O)COc1cc(=O)n(C)c2ccccc12)c1ccc(Br)cc1 . State its measured viability. 78.3%

Consider the molecule CCOC(=O)c1c(N)sc(C(=O)N2CCOCC2)c1C . State its measured viability. 97.6%

Consider the molecule Cc1noc(C)c1S(=O)(=O)N1CCC(C(=O)N2CCN(Cc3ccc4c(c3)OCO4)CC2)CC1 . State its measured viability. 98.6%
